Target: human TMPRSS2 (Homo sapiens, UniProt O15393)
Construct: the purified MBP-tagged TMPRSS2 (residues 256-492) activity; made in house; host or cells: E. coli BL21 (DE3)
Sequence (O15393 256-492): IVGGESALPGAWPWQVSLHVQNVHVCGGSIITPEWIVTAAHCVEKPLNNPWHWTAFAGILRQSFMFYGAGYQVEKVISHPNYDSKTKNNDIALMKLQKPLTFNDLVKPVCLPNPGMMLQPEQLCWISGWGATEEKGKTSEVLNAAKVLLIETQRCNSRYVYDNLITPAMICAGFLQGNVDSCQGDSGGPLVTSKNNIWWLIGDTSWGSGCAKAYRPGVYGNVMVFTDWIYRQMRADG
Test: Inhibition assay of human TMPRSS2 (fluorogenic peptide)
Assay type: biochemical
Settings: 0.22 μM MBP-tagged TMPRSS2 (residues 256-492), 10 μM Boc-Gln-Ala-Arg-AMC; read-out: IC50
Readout Name: IC50 (µM)

>>> df
                                   molecule  value_units  numeric_result
0  CCOc1cc2ncc(C#N)c(Nc3ccc(OCc4ccccn4)c(Cl)c3)c2cc1NC(=O)/C=C/CN(C)C           µM            25.9
1  CCN(CC)CCCC(C)Nc1c2ccc(Cl)cc2nc2ccc(OC)cc12 (stereo not drawn)           µM            29.9
2  COc1cccc2c1C(=O)c1c(O)c3c(c(O)c1C2=O)C[C@@](O)(C(=O)CO)C[C@@H]3O[C@H]1C[C@H](N)[C@H](O)[C@H](C)O1           µM             8.2
